system: UMSCC19; assay: MTT cell viability, UMSCC19; format: cell-based; settings: Head and neck cancer cell line UMSCC19
MEASURE NAME: IC50 (nM)
Give the number; nM is assumed, so skip it.

[in] Answer with the recorded IC50 of C[C@H](C(=O)N[C@@H](Cc1ccc(-c2ccccc2)cc1)C(=O)NC1CC(C)(C)NC(C)(C)C1)c1ccc(-c2ccccc2)c(F)c1 [GCBH-110] only.
[out] 2000

---

test system: Panc-1005; assay: MTT cell viability, Panc-1005; format: cell-based; settings: Homo sapiens, Panc1005, 96 h; Pancreatic cancer cells Panc-1005; 4 days incubation
MEASURE NAME: IC50 (µM)
// units = µM; emit number, no label

[in] Specify measured IC50 for C[C@H](C(=O)N[C@@H](Cc1ccc(-c2ccccc2)cc1)C(=O)NC1CC(C)(C)NC(C)(C)C1)c1ccc(-c2ccccc2)c(F)c1 .
[out] 0.7

---

system: SW1990; assay: MTT cell viability, SW1990; type: cell-based; conditions: Homo sapiens, 96 h; Pancreatic cancer cells SW1990; 4 days incubation
MEASURE NAME: IC50 (nM)
Expressed in nM, but write only the number.

[in] Supply recorded IC50 for C[C@H](C(=O)N[C@@H](Cc1ccc(-c2ccccc2)cc1)C(=O)NC1CC(C)(C)NC(C)(C)C1)c1ccc(-c2ccccc2)c(F)c1 here.
[out] 1500

---

test system: U251 malignant glioma cells; assay: Inhibition of U251 malignant glioma cells; type: cell-based; settings: Homo sapiens, U-251; U251 brain cancer cell line, FIG. 6B
MEASURE NAME: IC50

[in] Provide measured IC50 value, entry: C[C@H](C(=O)N[C@@H](Cc1ccc(-c2ccccc2)cc1)C(=O)NC1CC(C)(C)NC(C)(C)C1)c1ccc(-c2ccccc2)c(F)c1
[out] 2 to 10 µM

---

tested on: H2122; test: MTT cell viability, H2122 lung carcinoma cell line; type: cell-based; conditions: Homo sapiens, NCI-H2122; IC50 values for the H2122 lung carcinoma cell line, Table 5; read-out: H2122 In vitro
MEASURE NAME: IC50 (µM)
Numeric answer only, unit µM assumed.

CC(C(=O)N[C@@H](Cc1csc2ccccc12)C(=O)NC1CC(C)(C)NC(C)(C)C1)c1ccc(-c2ccccc2)c(F)c1 (stereo partly shown) [GCBH-114] = 1.2
C[C@H](C(=O)N[C@@H](Cc1ccc(-c2ccccc2)cc1)C(=O)NC1CC(C)(C)NC(C)(C)C1)c1ccc(-c2ccccc2)c(F)c1 [GCBH-110] = 0.15
C[C@H](C(=O)N[C@@H](Cc1ccc(C(F)(F)F)cc1)C(=O)NC1CC(C)(C)NC(C)(C)C1)c1ccc(-c2ccccc2)c(F)c1 [GCBH-122] = 2.1

From here, focus on the item given below.
[in] Write down IC50 measured for item C[C@H](C(=O)NC(CC(=O)NC1CC(C)(C)NC(C)(C)C1)c1ccc(-c2ccccc2)cc1)c1ccc(-c2ccccc2)c(F)c1 (stereo partly shown) [GCBH-120]
[out] 5.4

---

system: H460; assay: MTT cell viability, H460; format: cell-based; settings: Homo sapiens, NCI-H460, 96 h; Large Cell lung cell line H460; 4 days incubation
MEASURE NAME: IC50 (nM)
A number alone suffices; assume nM.

[in] Name the recorded IC50 of the compound listed here: C[C@H](C(=O)N[C@@H](Cc1ccc(-c2ccccc2)cc1)C(=O)NC1CC(C)(C)NC(C)(C)C1)c1ccc(-c2ccccc2)c(F)c1
[out] 480
